Values compiled from PubChem BioAssay AID1963825.

Assign viability, T/C to each entry below.
# assay_name: Anticancer human tumor 997537-175-T-J1-PDC patient-derived colon adenocarcinoma cell line growth inhibition [POLQ]
# test_context: 997537-175-T-J1-PDC complex spheroid viability, combination with POLQ inhibitors; second compound 0.316 µM; first compound 0.316 µM; stronger effect = lower value
Give bare numbers, in %.

Observe how each entry below is paired with its result.
COc1cccc2c1C(=O)c1c(O)c3c(c(O)c1C2=O)CC(O)(C(=O)CO)CC3OC1CC(N)C(O)C(C)O1 (stereo not given) + Cc1cccc(N(C)C(=O)C2C(O)CCN2c2nc(C)cc(C(F)(F)F)c2C#N)c1 = 116
CCCS(=O)(=O)Nc1ccc(F)c(C(=O)c2c[nH]c3ncc(-c4ccc(Cl)cc4)cc23)c1F + Nc1ccc(C#CCN(C(=O)Cc2ncc(C(F)(F)F)cc2C(F)(F)F)c2ccc(F)cc2)nn1 = 78.4
O=c1[nH]cc(F)c(=O)[nH]1 + Nc1ccc(C#CCN(C(=O)Cc2ncc(C(F)(F)F)cc2C(F)(F)F)c2ccc(F)cc2)nn1 = 103

Each of the following entries comes with a recorded value; kindly state viability, T/C for each.
1. C=CCn1c(=O)c2cnc(Nc3ccc(N4CCN(C)CC4)cc3)nc2n1-c1cccc(C(C)(C)O)n1 + Nc1ccc(C#CCN(C(=O)Cc2ncc(C(F)(F)F)cc2C(F)(F)F)c2ccc(F)cc2)nn1
2. COc1ccc([C@@H](O)c2cc(-c3ncnc4cc(N5CCOCC5)ccc34)c(F)cc2Cl)nn1 + Cc1cccc(N(C)C(=O)C2C(O)CCN2c2nc(C)cc(C(F)(F)F)c2C#N)c1

Key:
1. 76.3
2. 106

---

Record form. Attribute: pIC50. Fill in for each entry.
# assay_name: Anticancer human tumor 997537-175-T-J1-PDC cell line growth inhibition [POLQ];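 further: luminescence signal used as a surrogate for viable cells; spheroids exposed to drugs for seven days before readout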
# test_context: 997537-175-T-J1-PDC complex spheroid viability, combination with POLQ inhibitors; curve of first compound; second compound 3.16 µM
# Description: Multicellular complex tumor spheroid response to Polymerase (POL) inhibitors (novobiocin, ART-558, RP6685) in combination with a variety of drugs and investigational agents in selected tumor cell lines The POL inhibitors (novobiocin, ART-558, and RP6685) were evaluated both individually and in combination with standard of care and investigational anticancer small molecules within a complex spheroid model of solid tumors. . […]
pIC50: −log10 of the molar value.

Provide the reported pIC50 of each entry below, same order.
1. CC1COCCN1c1cc(C2(O)CC3CCC(C2)O3)c2cnn(-c3ccn[nH]3)c2n1 (stereo not given) + Nc1ccc(C#CCN(C(=O)Cc2ncc(C(F)(F)F)cc2C(F)(F)F)c2ccc(F)cc2)nn1
2. COc1cccc(OCCCN)c1-c1cc(Nc2cnc(C#N)cn2)n[nH]1 + Cc1cccc(N(C)C(=O)C2C(O)CCN2c2nc(C)cc(C(F)(F)F)c2C#N)c1
3. COc1cc(C2c3cc4c(cc3C(OC3OC5COC(C)OC5C(O)C3O)C3COC(=O)C23)OCO4)cc(OC)c1O (stereo not given) + COC1C(OC(N)=O)C(O)C(Oc2ccc3c(O)c(NC(=O)c4ccc(O)c(CC=C(C)C)c4)c(=O)oc3c2C)OC1(C)C
4. CC[C@@]1(O)C(=O)OCc2c1cc1n(c2=O)Cc2cc3c(CN(C)C)c(O)ccc3nc2-1 + Cc1cccc(N(C)C(=O)C2C(O)CCN2c2nc(C)cc(C(F)(F)F)c2C#N)c1
5. CC[C@@]1(O)C(=O)OCc2c1cc1n(c2=O)Cc2cc3c(CN(C)C)c(O)ccc3nc2-1 + Nc1ccc(C#CCN(C(=O)Cc2ncc(C(F)(F)F)cc2C(F)(F)F)c2ccc(F)cc2)nn1
6. CC(C)n1c(=O)n(C)c2cnc3cc(F)c(-c4ccc(OCCCN5CCCCC5)nc4)cc3c21 + Nc1ccc(C#CCN(C(=O)Cc2ncc(C(F)(F)F)cc2C(F)(F)F)c2ccc(F)cc2)nn1
7. C#Cc1c(F)ccc2cc(O)cc(-c3ncc4c(N5CC6CCC(C5)N6)nc(OCC56CCCN5CC(F)C6)nc4c3F)c12 (stereo not given) + Nc1ccc(C#CCN(C(=O)Cc2ncc(C(F)(F)F)cc2C(F)(F)F)c2ccc(F)cc2)nn1

Key:
5.50
7.63
< 5.00
< 7.00
< 7.00
< 5.00
< 5.00

# per-item lookup of pIC50; items listed below
1. CCc1cc2c(N3CCc4c(cc(Cn5ccnc5)cc4-c4cn(C)nc4C(F)(F)F)C3=O)ccnc2c(OC)n1 + Nc1ccc(C#CCN(C(=O)Cc2ncc(C(F)(F)F)cc2C(F)(F)F)c2ccc(F)cc2)nn1
2. CC(C)n1c(=O)n(C)c2cnc3cc(F)c(-c4ccc(OCCCN5CCCCC5)nc4)cc3c21 + Cc1cccc(N(C)C(=O)C2C(O)CCN2c2nc(C)cc(C(F)(F)F)c2C#N)c1

Key:
1: < 5.00; 2: < 5.00

---

# assay_name: Anticancer human tumor 997537-175-T-J1-PDC cell line growth inhibition [POLQ];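 further: luminescence signal used as a surrogate for viable cells; spheroids exposed to drugs for seven days before readout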
# test_context: 997537-175-T-J1-PDC complex spheroid viability, combination with POLQ inhibitors; second compound 0.316 µM; first compound 10 µM; stronger effect = lower value
In plain terms, low viability, T/C, meaning strictly below 80%, gives Criterion met, and everything else gives Criterion not met.

Some solved cases for reference:
O=C(c1cc(Cc2n[nH]c(=O)c3ccccc23)ccc1F)N1CCN(C(=O)C2CC2)CC1 + COC1C(OC(N)=O)C(O)C(Oc2ccc3c(O)c(NC(=O)c4ccc(O)c(CC=C(C)C)c4)c(=O)oc3c2C)OC1(C)C = Criterion not met
O=C(Nc1ccc(O)c(NS(=O)(=O)c2ccc(F)cc2)c1)c1ccc(-c2ccccc2)cc1 + Nc1ccc(C#CCN(C(=O)Cc2ncc(C(F)(F)F)cc2C(F)(F)F)c2ccc(F)cc2)nn1 = Criterion not met
Nc1ccn(C2OC(CO)C(O)C2(F)F)c(=O)n1 (stereo not given) + Nc1ccc(C#CCN(C(=O)Cc2ncc(C(F)(F)F)cc2C(F)(F)F)c2ccc(F)cc2)nn1 = Criterion met

Exercise: Criterion: viability, T/C strictly below 80%. Is it met by COc1cc2cc(C(=O)CCC(=O)O)sc2cc1OC + Cc1cccc(N(C)C(=O)C2C(O)CCN2c2nc(C)cc(C(F)(F)F)c2C#N)c1 ?
Key: Criterion not met

Exercise: # TODO verify viability, T/C < 80% strictly for this molecule: CC1COCCN1c1cc(C2(O)CC3CCC(C2)O3)c2cnn(-c3ccn[nH]3)c2n1 (stereo not given) + Nc1ccc(C#CCN(C(=O)Cc2ncc(C(F)(F)F)cc2C(F)(F)F)c2ccc(F)cc2)nn1
Key: Criterion met

---

# assay_name: Anticancer human tumor 997537-175-T-J1-PDC cell line growth inhibition [POLQ];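 further: luminescence signal used as a surrogate for viable cells; spheroids exposed to drugs for seven days before readout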
# test_context: 997537-175-T-J1-PDC complex spheroid viability, combination with POLQ inhibitors; second compound 0.1 µM; first compound 0.1 µM; stronger effect = lower value
For each of the compounds below, state its viability, T/C.
Numbers only, in %.

Reference set (3 entries):
COc1cccc(OCCCN)c1-c1cc(Nc2cnc(C#N)cn2)n[nH]1 + Cc1cccc(N(C)C(=O)C2C(O)CCN2c2nc(C)cc(C(F)(F)F)c2C#N)c1 = 73
C=CC(=O)N1CCN(c2nc(=O)n(-c3c(C)ccnc3C(C)C)c3nc(-c4c(O)cccc4F)c(F)cc23)C(C)C1 (stereo not given) + COC1C(OC(N)=O)C(O)C(Oc2ccc3c(O)c(NC(=O)c4ccc(O)c(CC=C(C)C)c4)c(=O)oc3c2C)OC1(C)C = 125
O=C(Nc1ccc(O)c(NS(=O)(=O)c2ccc(F)cc2)c1)c1ccc(-c2ccccc2)cc1 + COC1C(OC(N)=O)C(O)C(Oc2ccc3c(O)c(NC(=O)c4ccc(O)c(CC=C(C)C)c4)c(=O)oc3c2C)OC1(C)C = 94.4

Hi there! I need viability, T/C for each item below, if you can.
1. CCc1cc2c(N3CCc4c(cc(Cn5ccnc5)cc4-c4cn(C)nc4C(F)(F)F)C3=O)ccnc2c(OC)n1 + Cc1cccc(N(C)C(=O)C2C(O)CCN2c2nc(C)cc(C(F)(F)F)c2C#N)c1
2. COc1ccc([C@@H](O)c2cc(-c3ncnc4cc(N5CCOCC5)ccc34)c(F)cc2Cl)nn1 + Nc1ccc(C#CCN(C(=O)Cc2ncc(C(F)(F)F)cc2C(F)(F)F)c2ccc(F)cc2)nn1

Key:
110
110

---

# assay_name: Anticancer human tumor 997537-175-T-J1-PDC cell line growth inhibition [POLQ];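 further: luminescence signal used as a surrogate for viable cells; spheroids exposed to drugs for seven days before readout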
# test_context: 997537-175-T-J1-PDC complex spheroid viability, combination with POLQ inhibitors; curve of first compound; second compound 3.16 µM
Kindly supply the reported IC50 values for the records listed here.

Some molecules with known IC50 results, for comparison:
O=C(c1cc(Cc2n[nH]c(=O)c3ccccc23)ccc1F)N1CCN(C(=O)C2CC2)CC1 + COC1C(OC(N)=O)C(O)C(Oc2ccc3c(O)c(NC(=O)c4ccc(O)c(CC=C(C)C)c4)c(=O)oc3c2C)OC1(C)C = > 10000 nM
CC(=O)O[C@H]1C(=O)[C@@]2(C)[C@H]([C@H](OC(=O)c3ccccc3)[C@]3(O)C[C@H](OC(=O)[C@H](O)[C@@H](NC(=O)c4ccccc4)c4ccccc4)C(C)=C1C3(C)C)[C@]1(OC(C)=O)CO[C@@H]1C[C@@H]2O + COC1C(OC(N)=O)C(O)C(Oc2ccc3c(O)c(NC(=O)c4ccc(O)c(CC=C(C)C)c4)c(=O)oc3c2C)OC1(C)C = 14.6 nM
O=c1[nH]cc(F)c(=O)[nH]1 + Nc1ccc(C#CCN(C(=O)Cc2ncc(C(F)(F)F)cc2C(F)(F)F)c2ccc(F)cc2)nn1 = > 10000 nM
C=CC(=O)N1CCN(c2nc(=O)n(-c3c(C)ccnc3C(C)C)c3nc(-c4c(O)cccc4F)c(F)cc23)C(C)C1 (centres undefined) + Cc1cccc(N(C)C(=O)C2C(O)CCN2c2nc(C)cc(C(F)(F)F)c2C#N)c1 = > 10000 nM
CC1COCCN1c1cc(C2(S(C)(=N)=O)CC2)nc(-c2ccnc3[nH]ccc23)n1 (centres undefined) + Nc1ccc(C#CCN(C(=O)Cc2ncc(C(F)(F)F)cc2C(F)(F)F)c2ccc(F)cc2)nn1 = 6510 nM

Hello, I would appreciate it if you could give IC50 for each entry below.
1. CC(=O)O[C@H]1C(=O)[C@@]2(C)[C@H]([C@H](OC(=O)c3ccccc3)[C@]3(O)C[C@H](OC(=O)[C@H](O)[C@@H](NC(=O)c4ccccc4)c4ccccc4)C(C)=C1C3(C)C)[C@]1(OC(C)=O)CO[C@@H]1C[C@@H]2O + Cc1cccc(N(C)C(=O)C2C(O)CCN2c2nc(C)cc(C(F)(F)F)c2C#N)c1
2. CCc1c2c(nc3ccc(O)cc13)-c1cc3c(c(=O)n1C2)COC(=O)[C@]3(O)CC + Nc1ccc(C#CCN(C(=O)Cc2ncc(C(F)(F)F)cc2C(F)(F)F)c2ccc(F)cc2)nn1
3. COc1cc2cc(C(=O)CCC(=O)O)sc2cc1OC + Nc1ccc(C#CCN(C(=O)Cc2ncc(C(F)(F)F)cc2C(F)(F)F)c2ccc(F)cc2)nn1

Key:
1. 20.9 nM
2. 21.9 nM
3. > 10000 nM

Exercise: Return reported IC50; argument: C=CCn1c(=O)c2cnc(Nc3ccc(N4CCN(C)CC4)cc3)nc2n1-c1cccc(C(C)(C)O)n1 + Cc1cccc(N(C)C(=O)C2C(O)CCN2c2nc(C)cc(C(F)(F)F)c2C#N)c1
Key: > 1000 nM
